# Test details: xn = mol fraction of the nth substance listed, in the solute-free solvent
# Stated conditions: 313.15 K; x2 = 0.8
Quantity measured: solubility (g/100 g solution)

Example cases with answers are listed next.
[[record]]
compound = "CCOC(=O)OC1=C(c2cc(C)ccc2C)C(=O)NC12CCC(OC)CC2 (centres undefined) + CC(C)=O + O"
quantity_measured = "solubility (g/100 g solution)"
measured_value = 27.4

[[record]]
compound = "Cl.N=C(N)NC(=N)N1CCOCC1 + O + CC(C)O"
quantity_measured = "solubility (g/100 g solution)"
measured_value = 42.9

[[record]]
compound = "CCOc1ccccc1C(N)=O + CC#N + CC(C)O"
quantity_measured = "solubility (g/100 g solution)"
measured_value = 11.7


I would be grateful if you could provide solubility (g/100 g solution) for each of the following entries.
1. CCOC(=O)OC1=C(c2cc(C)ccc2C)C(=O)NC12CCC(OC)CC2 (centres undefined) + CC(C)O + O
2. Cc1ncc(CO)c(CO)c1O.Cl + O + CC#N
3. N#CCNC(=O)c1cnccc1C(F)(F)F + CCOC(C)=O + CCO
4. Cl.NC(Cc1ccccc1)C(=O)OCc1ccccc1 (centres undefined) + CO + CC(C)=O
5. Cc1c(Br)c(=O)n(C2CCCC2)c2nc(Cl)ncc12 + CCOC(C)=O + CCO

Result:
[13.2, 23.4, 9.69, 15.8, 1.39]

----------
# Test details: xn = mol fraction of the nth substance listed, in the solute-free solvent
# Stated conditions: 313.15 K; x2 = 0.1
Exercise: state measured solubility (g/100 g solution) for each of the compounds provided.

[[record]]
compound = "CCOc1ccccc1C(N)=O + CC#N + CC(C)O"
quantity_measured = "solubility (g/100 g solution)"
measured_value = 8.08

[[record]]
compound = "CCOc1ccccc1C(N)=O + CCO + CC#N"
quantity_measured = "solubility (g/100 g solution)"
measured_value = 10.5


Here's the next entry for you.
Task: Name the recorded solubility (g/100 g solution) for Cc1c(Br)c(=O)n(C2CCCC2)c2nc(Cl)ncc12 + CC1=CC(=O)CC(C)(C)C1 + CC(C)O .
Result: 0.929

----------
Provide the recorded solubility (g/100 g solution) for the entries that follow.
# Test details: xn = mol fraction of the nth substance listed, in the solute-free solvent
# Stated conditions: 323.15 K; x2 = 0.3
One number for each entry.

Some compounds with recorded solubility (g/100 g solution):
[[record]]
compound = "O=C(NC(C(=O)O)c1ccccc1)OCc1ccccc1 (stereo not drawn) + CCO + O"
quantity_measured = "solubility (g/100 g solution)"
measured_value = 12.7

[[record]]
compound = "Cc1c(Br)c(=O)n(C2CCCC2)c2nc(Cl)ncc12 + CC1=CC(=O)CC(C)(C)C1 + CC(C)O"
quantity_measured = "solubility (g/100 g solution)"
measured_value = 3.21


Okay, now this compound:
Task: Query (compound): CCOc1ccccc1C(N)=O + CC#N + CCO ; field requested: solubility (g/100 g solution)
Result: 21.8

----------
# Test details: xn = mol fraction of the nth substance listed, in the solute-free solvent
# Stated conditions: 288.15 K; x2 = 0.6
Please respond with reported solubility (g/100 g solution) for every item in the list.
Numbers only.

[[record]]
molecule = "Cc1ncc(CO)c(CO)c1O.Cl + O + CCCO"
quantity_measured = "solubility (g/100 g solution)"
measured_value = 4.91

[[record]]
molecule = "COC(=O)C(N)CS.Cl (stereo not drawn) + CCO + ClCCl"
quantity_measured = "solubility (g/100 g solution)"
measured_value = 5.07


Task: Which measured solubility (g/100 g solution) value corresponds to CCOC(=O)OC1=C(c2cc(C)ccc2C)C(=O)NC12CCC(OC)CC2 (stereo not drawn) + CC(C)O + O ?
Result: 5.04

----------
# Test details: xn = mol fraction of the nth substance listed, in the solute-free solvent
# Stated conditions: 298.15 K; x2 = 0.5
So I've got a bunch of compounds here, and I need their solubility (g/100 g solution) values.
Answers are plain numbers.

Example entries begin here.
[[record]]
compound = "COC(=O)C(N)CS.Cl (stereo not drawn) + CCO + ClCCl"
measured_value = 5.89

[[record]]
compound = "Cc1ncc(CO)c(CO)c1O.Cl + O + CC#N"
measured_value = 5.79


Continue with the compound presented below.
Task: I have this compound here, CCOc1ccccc1C(N)=O + CCO + CC#N , and I need its recorded solubility (g/100 g solution).
Result: 8.56

----------
# Test details: xn = mol fraction of the nth substance listed, in the solute-free solvent
# Stated conditions: 283.15 K; x2 = 0.9
Give solubility (g/100 g solution) for every item shown.
Give bare numbers.

[[record]]
molecule = "O=C(NC(C(=O)O)c1ccccc1)OCc1ccccc1 (stereo not drawn) + CCO + O"
measured_value = 11.8

[[record]]
molecule = "Cl.NC(Cc1ccccc1)C(=O)OCc1ccccc1 (stereo not drawn) + CO + CC(C)=O"
measured_value = 11.1


Task: # lookup: solubility (g/100 g solution) of COC(=O)C(N)CS.Cl (stereo not drawn) + CCO + ClCCl
Result: 6.92

----------
# Test details: xn = mol fraction of the nth substance listed, in the solute-free solvent
# Stated conditions: 283.15 K; x2 = 0.3
For each of the compounds below, state its solubility (g/100 g solution).

Field: example entries. Status: answers known.
[[record]]
compound = "COC(=O)C(N)CS.Cl (stereo not drawn) + CCO + ClCCl"
quantity_measured = "solubility (g/100 g solution)"
measured_value = 2.62

[[record]]
compound = "Cl.NC(Cc1ccccc1)C(=O)OCc1ccccc1 (stereo not drawn) + CO + CC(C)=O"
quantity_measured = "solubility (g/100 g solution)"
measured_value = 1.34


Task: Given Cc1c(Br)c(=O)n(C2CCCC2)c2nc(Cl)ncc12 + CC1=CC(=O)CC(C)(C)C1 + CC(C)O , state its recorded solubility (g/100 g solution).
Result: 0.325

----------
# Test details: xn = mol fraction of the nth substance listed, in the solute-free solvent
# Stated conditions: 313.15 K; x2 = 0.6
Answer each item with its documented solubility (g/100 g solution).
Numbers only.

[[record]]
compound = "Cc1ncc(CO)c(CO)c1O.Cl + O + CC#N"
quantity_measured = "solubility (g/100 g solution)"
measured_value = 12.6


Hi, could you look up solubility (g/100 g solution) for each item in my list?
1. Cc1c(Br)c(=O)n(C2CCCC2)c2nc(Cl)ncc12 + CC1=CC(=O)CC(C)(C)C1 + CC(C)O
2. CCOC(=O)OC1=C(c2cc(C)ccc2C)C(=O)NC12CCC(OC)CC2 (stereo not drawn) + CO + O

Result:
1: 2.9; 2: 7.65

----------
# Test details: xn = mol fraction of the nth substance listed, in the solute-free solvent
# Stated conditions: 303.15 K; x2 = 0.7
Decision: solubility (g/100 g solution) >= 9 yields t, all other cases yield f.

Worked examples follow.
[[record]]
molecule = "Cc1ncc(CO)c(CO)c1O.Cl + O + CC#N"
category = "t"

[[record]]
molecule = "Cl.N=C(N)NC(=N)N1CCOCC1 + O + CC(C)O"
category = "t"


Task: Check this molecule for solubility (g/100 g solution) at or above 9: Cc1ncc(CO)c(CO)c1O.Cl + O + CCCO
Result: t

Task: Given the entry Cc1c(Br)c(=O)n(C2CCCC2)c2nc(Cl)ncc12 + CC1=CC(=O)CC(C)(C)C1 + CC(C)O , answer whether its solubility (g/100 g solution) meets or surpasses 9.
Result: f

----------
# Test details: xn = mol fraction of the nth substance listed, in the solute-free solvent
# Stated conditions: 303.15 K; x2 = 0.9
Quantity measured: solubility (g/100 g solution)
Answers are plain numbers.

Solved entries (count: 4):
[[record]]
molecule = "Cl.N=C(N)NC(=N)N1CCOCC1 + O + CC(C)O"
measured_value = 44.3

[[record]]
molecule = "Cc1ncc(CO)c(CO)c1O.Cl + O + CC(C)O"
measured_value = 16.6

[[record]]
molecule = "Cc1ncc(CO)c(CO)c1O.Cl + O + CC#N"
measured_value = 20.7

[[record]]
molecule = "NC(=O)NC1NC(=O)NC1=O (stereo not given) + O + CO"
measured_value = 0.642


Moving on to another molecule below.
Task: Would you mind telling me what solubility (g/100 g solution) value was observed for CCOc1ccccc1C(N)=O + CCO + CC#N ?
Result: 7.54

----------
# Test details: xn = mol fraction of the nth substance listed, in the solute-free solvent
# Stated conditions: 313.15 K; x2 = 0.2
Would you mind labelling by solubility (g/100 g solution)? At or over 3 is Y, under is N.

Use the examples below as a reference point.
[[record]]
compound = "Cl.N=C(N)NC(=N)N1CCOCC1 + O + CC(C)O"
category = "N"

[[record]]
compound = "CCOC(=O)OC1=C(c2cc(C)ccc2C)C(=O)NC12CCC(OC)CC2 (stereo unspecified) + CC(C)=O + O"
category = "N"

[[record]]
compound = "CCOC(=O)OC1=C(c2cc(C)ccc2C)C(=O)NC12CCC(OC)CC2 (stereo unspecified) + CC(C)O + O"
category = "Y"

[[record]]
compound = "O=C(NC(C(=O)O)c1ccccc1)OCc1ccccc1 (stereo unspecified) + CCO + O"
category = "N"

[[record]]
compound = "CCOc1ccccc1C(N)=O + CC#N + CC(C)O"
category = "Y"


Next, consider the following compound.
Task: Please tell me: is the compound NC(=O)NC1NC(=O)NC1=O (stereo unspecified) + O + CO at or over 3 in terms of solubility (g/100 g solution)?
Result: N
